Biological target: human LPA1 receptor (Homo sapiens (Human), UniProt Q92633)
Sequence (Q92633 whole entry): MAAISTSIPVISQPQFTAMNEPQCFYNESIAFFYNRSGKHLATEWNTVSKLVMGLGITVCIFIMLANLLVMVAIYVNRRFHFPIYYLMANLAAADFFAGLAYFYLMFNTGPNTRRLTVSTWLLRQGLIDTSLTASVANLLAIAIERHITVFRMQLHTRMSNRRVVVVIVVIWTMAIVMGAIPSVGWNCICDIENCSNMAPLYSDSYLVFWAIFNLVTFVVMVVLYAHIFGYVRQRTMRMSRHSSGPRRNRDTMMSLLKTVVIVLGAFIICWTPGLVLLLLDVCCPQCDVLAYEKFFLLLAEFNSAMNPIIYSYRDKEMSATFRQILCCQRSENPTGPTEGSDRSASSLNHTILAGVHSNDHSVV
Test: Beta-arrestin recruitment assay to determine IC50 values for human LPAR1
Settings: antagonist mode, Tango EDG2-bla U2OS cells, LPA 18:1 500 nM final
# Lookup of reported pIC50 keyed by entry
On this scale, pIC50 is minus log10 of a concentration expressed in M (mol/L).

Sample records with pIC50:
[[record]]
molecule = "COc1ccc(C(C)C)c(C2(C(=O)Nc3ccc(C)nc3OC(F)F)CN(C(=O)CC(C)(C)C(=O)O)C2)c1"
target_or_system = "human LPA1 receptor (Homo sapiens (Human), UniProt Q92633)"
assay_endpoint = "pIC50"
endpoint_result = 7.25

[[record]]
molecule = "Cc1ccc(NC(=O)C2(c3ccccc3C(C)C)CN(C[C@@H](O)CN)C2)c(OC(F)F)n1"
target_or_system = "human LPA1 receptor (Homo sapiens (Human), UniProt Q92633)"
assay_endpoint = "pIC50"
endpoint_result = 7.70

[[record]]
molecule = "COC(=O)Cn1cc(CN2CC(C(=O)Nc3ccc(C)nc3OC(F)F)(c3ccccc3C(C)C)C2)nn1"
target_or_system = "human LPA1 receptor (Homo sapiens (Human), UniProt Q92633)"
assay_endpoint = "pIC50"
endpoint_result = 6.52

[[record]]
molecule = "Cc1ccc(NC(=O)C2(c3ccccc3C(C)C)CN(C(=O)COCCOCC(=O)O)C2)c(OC(F)F)n1"
target_or_system = "human LPA1 receptor (Homo sapiens (Human), UniProt Q92633)"
assay_endpoint = "pIC50"
endpoint_result = 6.82

[[record]]
molecule = "CCOC(=O)C1(NC(=O)N2CC(C(=O)Nc3ccc(C)nc3OC(F)F)(c3ccccc3C(C)C)C2)CC1"
target_or_system = "human LPA1 receptor (Homo sapiens (Human), UniProt Q92633)"
assay_endpoint = "pIC50"
endpoint_result = 7.89

[[record]]
molecule = "Cc1ccc(NC(=O)C2(c3ccccc3C(C)C)CN(C(=O)[C@H]3CC[C@@H](C(=O)O)CC3)C2)c(OC(F)F)n1"
target_or_system = "human LPA1 receptor (Homo sapiens (Human), UniProt Q92633)"
assay_endpoint = "pIC50"
endpoint_result = 7.17


**Query** Dear colleague, I am looking for the recorded pIC50 of the following molecule: Cc1ccc(NC(=O)C2(c3ccccc3C(C)C)CCN(C(=O)NCc3c[nH]cn3)CC2)c(OC(F)F)n1
**Result** 8.10

**Query** Also Cc1ccc(NC(=O)C2(c3ccccc3C(C)C)CN(C(=O)[C@H](C)CC(=O)O)C2)c(OC(F)F)n1 ?
**Result** 7.85

**Query** Cc1ccc(NC(=O)C2(c3ccccc3C(C)C)CN(C(=O)CC3(C(=O)O)CCOCC3)C2)c(OC(F)F)n1 , same question.
**Result** 7.82

###

Molecular target: human LPA1 receptor (Homo sapiens (Human), UniProt Q92633)
Experiment: Beta-arrestin recruitment assay to determine IC50 values for human LPAR1
Conditions: antagonist mode, Tango EDG2-bla U2OS cells, LPA 18:1 500 nM final
ASSAY_ENDPOINT: IC50 (nM)
// note: answer is a bare numeric in nM

[[record]]
compound = "CCCNS(=O)(=O)N1CC(C(=O)Nc2ccc(C)nc2OC(F)F)(c2ccccc2C(C)C)C1 [Ex 15-11]"
endpoint_result = 6

[[record]]
compound = "Cc1ccc(NC(=O)C2(c3ccccc3C(C)C)CN(S(=O)(=O)NCCO)C2)c(OC(F)F)n1 [Ex 15-3]"
endpoint_result = 11

[[record]]
compound = "Cc1ccc(NC(=O)C2(c3ccccc3C(C)C)CCN(C(=O)C[C@@H]3OC(C)(C)OC3=O)CC2)c(OC(F)F)n1 [Ex 12-36]"
endpoint_result = 21


**Query** Identify the measured IC50 of CC(C)c1ccccc1C1(C(=O)Nc2ncc(Br)cc2OC(F)F)CN(CCC(C)(C)C(=O)O)C1 [Ex 78-3] for human LPA1 receptor (Homo sapiens (Human), UniProt Q92633).
**Result** 13

###

In this section, each of the molecules is paired with its reported IC50.
Target: human LPA1 receptor (Homo sapiens (Human), UniProt Q92633)
Experiment: Beta-arrestin recruitment assay to determine IC50 values for human LPAR1
Settings: antagonist mode, Tango EDG2-bla U2OS cells, LPA 18:1 500 nM final
A number alone suffices; assume nM.

Observe how each entry below is paired with its result.
[[record]]
smiles_representation = "Cc1ccc(NC(=O)C2(c3ccccc3C(C)C)CN(c3cc(C(=O)O)ncn3)C2)c(OC(F)F)n1"
endpoint_result = 17

[[record]]
smiles_representation = "Cc1ccc(NC(=O)C2(c3ccccc3C(C)C)CN(c3nccc(C(=O)O)n3)C2)c(OC(F)F)n1"
endpoint_result = 47

[[record]]
smiles_representation = "Cc1ccc(NC(=O)C2(c3cc(F)ccc3C(C)C)CNC2)c(OC(F)F)n1"
endpoint_result = 112


**Query** Which measured IC50 belongs to COC(=O)c1n[nH]cc1CN1CC(C(=O)Nc2ccc(C)nc2OC(F)F)(c2ccccc2C(C)C)C1 , tested on human LPA1 receptor (Homo sapiens (Human), UniProt Q92633)?
**Result** 6

**Query** Then this molecule: Cc1cnc(NC(=O)C2(c3ccccc3C(C)C)CN(S(=O)(=O)CCC(=O)OCc3ccccc3)C2)c(OC(F)F)c1
**Result** 55

###

Target: human LPA1 receptor (Homo sapiens (Human), UniProt Q92633)
Assay: Beta-arrestin recruitment assay to determine IC50 values for human LPAR1
Details: antagonist mode, Tango EDG2-bla U2OS cells, LPA 18:1 500 nM final
# IC50 values compiled below
Note: a bare number is incomplete; add the unit.

**Query** State the recorded IC50 for this entry: COC(=O)C(C)(C)CCNC(=O)N1CC(C(=O)Nc2ccc(C)nc2OC(F)F)(c2ccccc2C(C)C)C1 [Ex 17-18]
**Result** 6 nM

**Query** Now this one: COCCN1CCC(CC(=O)N2CC(C(=O)Nc3ccc(C)nc3OC(F)F)(c3ccccc3C(C)C)C2)CC1 [Ex 12-139]
**Result** 165 nM

**Query** Same question, Cc1ccc(NC(=O)C2(c3ccccc3C(C)C)CN(C(=O)C3(C(=O)O)CC3)C2)c(OC(F)F)n1 [Ex 12-64] this time
**Result** 19 nM

**Query** Here is the next compound: Cc1ccc(NC(=O)C2(c3ccccc3C(C)C)CN(C(=O)CC3CCN(C)CC3)C2)c(OC(F)F)n1 [Ex 12-31]
**Result** 337 nM

**Query** Also check COC(=O)C(C)(C)CCN1CC(C(=O)Nc2ccc(C)nc2OC(F)F)(c2ccccc2C(C)C)C1 [Ex 11-30]
**Result** 98 nM

**Query** Param item: Cc1ccc(NC(=O)C2(c3ccccc3C(C)C)CN(S(=O)(=O)CCC(=O)O)C2)c(OC(F)F)n1 [Ex 13-5]
**Result** 4 nM

**Query** Please do the same for Cc1ccc(NC(=O)C2(c3cc(F)ccc3C(C)C)CN(C(=O)CC(C)(C)C(=O)O)C2)c(OC(F)F)n1 [Ex 39-5] as well.
**Result** 10 nM

###

Target: human LPA1 receptor (Homo sapiens (Human), UniProt Q92633)
Assay: Beta-arrestin recruitment assay to determine IC50 values for human LPAR1
Conditions: antagonist mode, Tango EDG2-bla U2OS cells, LPA 18:1 500 nM final
# pIC50 listing for each entry below
Please keep in mind that pIC50 is minus log10 of the molar concentration; only the number is needed.

Observe how each entry below is paired with its result.
[[record]]
smiles_representation = "COCCNCC(=O)N1CC(C(=O)Nc2ccc(C)nc2OC(F)F)(c2ccccc2C(C)C)C1"
endpoint_result = 8.00

[[record]]
smiles_representation = "CC(C)c1ccccc1C1(C(=O)Nc2cccnc2OC(F)F)CN(c2ncc(C#N)cn2)C1"
endpoint_result = 8.30

[[record]]
smiles_representation = "CC(C)c1ccccc1C1(C(=O)Nc2cccnc2OC(F)F)CN(c2nc(C(=O)O)co2)C1"
endpoint_result = 7.39


**Query** What does the data say about its pIC50? Entry: Cc1ccc(NC(=O)C2(c3ccccc3C(C)C)CN(C(=O)Cc3cc(O)n[nH]3)C2)c(OC(F)F)n1
**Result** 7.72

###

Molecular target: human LPA1 receptor (Homo sapiens (Human), UniProt Q92633)
Experiment: Beta-arrestin recruitment assay to determine IC50 values for human LPAR1
Details: antagonist mode, Tango EDG2-bla U2OS cells, LPA 18:1 500 nM final
Items are presented alongside their recorded IC50.
Report the figure in nM without appending any unit label.

Look over these answered cases.
[[record]]
compound = "Cc1ccc(NC(=O)C2(c3ccccc3C(C)C)CCN(C(=O)CN(CCO)C(=O)OC(C)(C)C)CC2)c(OC(F)F)n1"
assay_endpoint = "IC50"
endpoint_result = 30

[[record]]
compound = "CC(C)c1ccccc1C1(C(=O)Nc2cccnc2OC(F)F)CN(C(=O)CC(C)(C)C(=O)O)C1"
assay_endpoint = "IC50"
endpoint_result = 51

[[record]]
compound = "Cc1ccc(NC(=O)C2(c3ccccc3C(C)C)CN(CC(C)(C)CC(=O)O)C2)c(OC(F)F)n1"
assay_endpoint = "IC50"
endpoint_result = 8

[[record]]
compound = "COC(=O)C1(CN2CC(C(=O)Nc3ccc(C)nc3OC(F)F)(c3ccccc3C(C)C)C2)COC1"
assay_endpoint = "IC50"
endpoint_result = 45

[[record]]
compound = "CC(=O)NS(=O)(=O)N1CC(C(=O)Nc2cccnc2OC(F)F)(c2ccccc2C(C)C)C1"
assay_endpoint = "IC50"
endpoint_result = 158

[[record]]
compound = "Cc1ccc(NC(=O)C2(c3ccccc3C(C)C)CN(S(=O)(=O)CCCS(=O)(=O)O)C2)c(OC(F)F)n1"
assay_endpoint = "IC50"
endpoint_result = 49

[[record]]
compound = "Cc1ccc(NC(=O)C2(c3ccccc3C(C)C)CN(c3ncc(C(=O)O)o3)C2)c(OC(F)F)n1"
assay_endpoint = "IC50"
endpoint_result = 34

[[record]]
compound = "Cc1ccc(NC(=O)C2(c3ccccc3C(C)C)CN(C(=O)Cn3cnnc3)C2)c(OC(F)F)n1"
assay_endpoint = "IC50"
endpoint_result = 21

[[record]]
compound = "COC(=O)/C=C/S(=O)(=O)N1CC(C(=O)Nc2ccc(C)nc2OC(F)F)(c2ccccc2C(C)C)C1"
assay_endpoint = "IC50"
endpoint_result = 18

[[record]]
compound = "Cc1ccc(NC(=O)C2(c3ccccc3C(C)C)CN(S(N)(=O)=O)C2)c(OC(C)C)n1"
assay_endpoint = "IC50"
endpoint_result = 7


**Query** // IC50 lookup, key: CC(C)c1ccccc1C1(C(=O)Nc2ncc(Cl)cc2OC(F)F)CN(C(=O)CC(C)(C)C(=O)O)C1
**Result** 17

Source: patent US12344597B2
